The reported numbers originate from patent US11414419B2.

Test: in vivo
Conditions: male, SD, rat, iv, 1 mg/kg, MRTINF_pred
Method: Compounds tested were as follows: kinetin (MW=215.21); MTK-115 (MW=243.26); MTK-115D (MW=219.29); MTK-125A (MW=217.27); and MTK-63A (MW=203.24). Formulation concentrations were 0.2 mg/mL for IV delivery; 0.5 mg/mL for PO delivery. […] Compounds were prepared in a formulation of 4% DMSO, 15% Solutol HS 15, 81% PBS and then administered to male SD rats via oral gavage at 5 mg/kg (n=3 per compound). […] Data were then plotted, and AUC values calculated.
Measurement type: MRT inf (min)

> print(dat)
                                   molecule  obs.value
1     C/C=C/CNc1nc(C)nc2[nH]cnc12 [MTK-63A]       10.2
2  c1coc(CNc2ncnc3[nH]cnc23)c1 [kinetin, reference compound]       10.8

1. Cc1nc(NCc2ccco2)c2nc(C)[nH]c2n1 [MTK-115]
2. CCCCNc1nc(C)nc2[nH]c(C)nc12 [MTK-115D]
Hi! Which is lower in terms of MRT inf, the first one 1 or the second one 2 ? Record your answer as the label of the chosen record.
2

----------
Experiment: in vivo
Conditions: male, SD, rat, po, 5 mg/kg, MRTINF_pred
Description: Compounds tested were as follows: kinetin (MW=215.21); MTK-115 (MW=243.26); MTK-115D (MW=219.29); MTK-125A (MW=217.27); and MTK-63A (MW=203.24). Formulation concentrations were 0.2 mg/mL for IV delivery; 0.5 mg/mL for PO delivery. […] Compounds were prepared in a formulation of 4% DMSO, 15% Solutol HS 15, 81% PBS and then administered to male SD rats via oral gavage at 5 mg/kg (n=3 per compound). […] Data were then plotted, and AUC values calculated.
Measurement type: MRT inf (h)

Illustrative cases are given below, each with its answer.
> print(dat)
                                   compound  measurement.type  obs.value
1  Cc1nc(NCc2ccco2)c2nc(C)[nH]c2n1 [MTK-115]           MRT inf       3.38
2     C/C=C/CNc1nc(C)nc2[nH]cnc12 [MTK-63A]           MRT inf       2.41
3  C/C=C/CNc1nc(C)nc2[nH]c(C)nc12 [MTK-115A]           MRT inf       2.92

I. CCCCNc1nc(C)nc2[nH]c(C)nc12 [MTK-115D]
II. c1coc(CNc2ncnc3[nH]cnc23)c1 [kinetin, reference compound]
Pick one: I or II . Which has the bigger MRT inf number? Answer with the label corresponding to your selection.
I
(I: 3.04 h, II: 1.32 h)

----------
Assay: in vivo
Conditions: male, SD, rat, iv, 1 mg/kg, AUCINF_pred
Protocol: Compounds tested were as follows: kinetin (MW=215.21); MTK-115 (MW=243.26); MTK-115D (MW=219.29); MTK-125A (MW=217.27); and MTK-63A (MW=203.24). Formulation concentrations were 0.2 mg/mL for IV delivery; 0.5 mg/mL for PO delivery. […] Compounds were prepared in a formulation of 4% DMSO, 15% Solutol HS 15, 81% PBS and then administered to male SD rats via oral gavage at 5 mg/kg (n=3 per compound). […] Data were then plotted, and AUC values calculated.
Measurement type: AUC(0-inf) (ng·h/mL)

P. CCCCNc1nc(C)nc2[nH]c(C)nc12 [MTK-115D]
Q. c1coc(CNc2ncnc3[nH]cnc23)c1 [kinetin, reference compound]
Of P and Q , which shows the smaller AUC(0-inf) value? Could you answer with the label of the item you picked?
Q
(Q: 57 ng·h/mL, P: 470 ng·h/mL)
